The reported measurements were obtained from paper PMC10303271.

experimental system: M5 (Homo sapiens)
Construct: purchased NIMH Psychoactive Drug Screening Program (PDSP)
Sequence (P08912 whole entry): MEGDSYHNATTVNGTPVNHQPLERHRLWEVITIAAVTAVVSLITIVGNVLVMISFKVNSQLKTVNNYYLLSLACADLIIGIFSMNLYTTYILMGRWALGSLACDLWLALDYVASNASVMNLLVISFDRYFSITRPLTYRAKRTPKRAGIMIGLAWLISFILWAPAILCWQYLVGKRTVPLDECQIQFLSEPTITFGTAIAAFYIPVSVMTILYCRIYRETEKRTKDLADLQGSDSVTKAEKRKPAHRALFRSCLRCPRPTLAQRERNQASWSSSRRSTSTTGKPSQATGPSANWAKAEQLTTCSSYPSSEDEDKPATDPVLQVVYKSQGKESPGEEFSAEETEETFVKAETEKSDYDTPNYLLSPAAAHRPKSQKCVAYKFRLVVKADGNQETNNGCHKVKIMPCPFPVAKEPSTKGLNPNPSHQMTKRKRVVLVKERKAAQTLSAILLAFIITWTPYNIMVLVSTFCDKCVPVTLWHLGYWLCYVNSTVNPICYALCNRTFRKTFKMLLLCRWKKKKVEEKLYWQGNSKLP
assay protocol: PDSP primary binding M5
run conditions: primary binding, 10,000 nM; last figure of the line = mean of the 4 before it; read-out: M5, PDSP raw data, mean
// values below are reported inhibition at 10 µM

{"molecule": "CCc1noc(-c2ncn3c2[C@@H](C)N=C(c2ccccc2F)c2cc(Cl)ccc2-3)n1 [Compound 36]", "experimental system": "M5 (Homo sapiens)", "scale unit": "%", "inhibition at 10 µM": -10.7}
{"molecule": "CCc1noc(-c2ncn3c2CN=C(c2ccccc2F)c2cc(C4CC4)ccc2-3)n1 [Compound 44]", "experimental system": "M5 (Homo sapiens)", "scale unit": "%", "inhibition at 10 µM": -14.1}
{"molecule": "C#Cc1ccc2c(c1)C(c1ccccc1F)=N[C@H](C)c1c(C(=S)N(C)C)ncn1-2 [Compound 33]", "experimental system": "M5 (Homo sapiens)", "scale unit": "%", "inhibition at 10 µM": -0.76}
{"molecule": "CCc1noc(-c2ncn3c2[C@@H](C)N=C(c2ccccc2F)c2cc(C4CC4)ccc2-3)n1 [Compound 46]", "experimental system": "M5 (Homo sapiens)", "scale unit": "%", "inhibition at 10 µM": 5.69}
{"molecule": "C#Cc1ccc2c(c1)C(c1ccccn1)=N[C@@H](C)c1c(C(=O)NC)ncn1-2 [Compound 23]", "experimental system": "M5 (Homo sapiens)", "scale unit": "%", "inhibition at 10 µM": -13.6}
{"molecule": "C[C@H]1N=C(c2ccccc2F)c2cc(Cl)ccc2-n2cnc(-c3nc(C4CC4)no3)c21 [Compound 38]", "experimental system": "M5 (Homo sapiens)", "scale unit": "%", "inhibition at 10 µM": -5.18}
{"molecule": "C[C@H]1N=C(c2ccccc2F)c2cc(-c3ccccc3)ccc2-n2cnc(C(=O)N(C)C)c21 [Compound 5]", "experimental system": "M5 (Homo sapiens)", "scale unit": "%", "inhibition at 10 µM": -0.76}
{"molecule": "C#Cc1ccc2c(c1)C(c1ccccc1Cl)=N[C@H](C)c1c(C(=O)N(C)CC)ncn1-2 [Compound 29]", "experimental system": "M5 (Homo sapiens)", "scale unit": "%", "inhibition at 10 µM": -17.5}
